assay: qHTS Assay for Lipid Storage Modulators (AID 1519); details: Drosophila S3 cells, BODIPY lipid droplet/cell ratio, laser cytometry; at 57.5 µM (top of the series); cells loaded with oleic acid; note: % is set by controls: 0 for no effect and ±100 for the full control effect
Results filed as inconclusive are left out.
Would you kindly list activity change, negative = inhibition for each of these compounds?
Form entry: value (%) — number only.

// returns reported activity change, negative = inhibition for input CC(C)CCCC(C)C1CCC2C3CC(=O)[C@H]4CC(O)CC[C@]4(C)C3CC[C@@]12C (some centres not stated)
-8.35

And the next one, CCC1OC(=O)C(C)[C@@H](O[C@H]2C[C@@](C)(OC)C(O)C(C)O2)C(C)[C@@H](O[C@@H]2OC(C)CC(N(C)C)C2O)[C@@](C)(O)CC(C)CN(C)C(C)C(O)[C@]1(C)O (some centres not stated) ?
0.114

Cool, now C=C1CCC(OC(C)=O)/C(C)=C/CC2[C@H]1CC2(C)C (some centres not stated)
1.96

// same read-out, input: COc1ccc(CC(N)C(=O)NC2C(CO)OC(n3cnc4c(N(C)C)ncnc43)C2O)cc1 (configuration not stated)
-15.4

What about this compound? O=C(O)C1(O)C[C@H](O)C(O)[C@@H](O)C1 (some centres not stated)
-0.572

Can you handle CC(=O)OC1CC2C(C)(C)C(=O)C3OC3[C@]2(C)C2CC[C@@]3(C)C(c4ccoc4)OC(=O)C4OC43[C@]12C (some centres not stated) next?
-0.845

Okay, and CCC(C)(C)C(=O)OC1CC(C)C=C2C=CC(C)C(CCC3CC(O)CC(=O)O3)C21 (configuration not stated) ?
-9

CCCCCCCCCCCCCCC(C(=O)O)C(O)(CC(=O)OC)C(=O)O (configuration not stated) , same question.
5.93

Lookup CC1CC[C@@]2(OC1)OC1CC3C4CC[C@H]5CC(O)CC[C@@]5(C)C4CC[C@]3(C)C1C2C (some centres not stated)
2.03

Likewise for O=c1c(O)c(-c2ccccc2)oc2cc(O)ccc12 ?
6.29

Follow-up entry: CC1(C)CC23C(=O)CCC(O)C2(C)CCC13 (configuration not stated)
0.112

What would you report for NCC1O[C@@H](O[C@@H]2C(O)[C@H](O[C@H]3OC(CO)C(O)C(N)C3O)[C@@H](N)C[C@H]2N)C(N)C(O)C1O (some centres not stated) ?
5.31

Repeat for the following compound: CN(C)CCCOC1C(C(O)CO)OC2OC(C)(C)O[C@@H]21 (some centres not stated)
4.25

Same for O=C(O)C(O)[C@@](O)(Cc1ccc(O)cc1)C(=O)O (some centres not stated)
5.41

Please give the result for CC(=O)N[C@H](CS)C(=O)O too.
4.08

Please answer likewise for COc1cc(-c2oc3cc(O)ccc3c(=O)c2O)ccc1O
-2.65

Now consider CC(=O)OC1CC[C@@]2(C)C3=CC(=O)[C@]4(C)C(CC5OC6(OCC(C)CC6Br)C(C)C54)C3CC[C@H]2C1 (some centres not stated) .
-8.55

====

system: P94_40; assay: qHTS profiling for inhibitors of Plasmodium falciparum proliferation (AID 504749); note: nearly all actives have a fitted effect of over 60% in size; conditions: P. falciparum in erythrocytes, SYBR Green DNA, 72 h; series mostly up to 12.8 µM
Inconclusive results are not listed. Calls of active or inactive are those of the source. Calls follow the shape of the dose curve; as a rule, active = well fitted inhibition curve with a large enough effect; inconclusive = small, poorly fitted or top-dose-only effect; inactive = flat fitted curve, though single readings scatter. Bridge positions count the residues as written; N and C are the ends. Square brackets hold non-standard residues; d marks the D form. Peptide text beside a SMILES is read from it. * marks the point of attachment. Ileψ(thiazoline)Cys = CC[C@H](C)[C@H](N)C1=N[C@H](C(=O)*)CS1; d(aIle) = CC[C@H](C)[C@@H](N)C(=O)O; dOrn = NCCC[C@@H](N)C(=O)O
Form entry, call: pick from active, inactive

Any idea what this test logged for OCC1O[C@H](OC2C(CO)O[C@@](O)(CO)C2O)C(O)C(O)C1O (some centres not stated) ?
inactive

Try this compound too: NC[C@@H]1O[C@@H](O[C@H]2[C@H](O)[C@H](O[C@@H]3O[C@H](CO)[C@@H](O)[C@H](N)[C@@H]3O)[C@@H](N)C[C@H]2N)[C@H](N)C[C@@H]1O
inactive

Now consider Cc1cccc(C)c1NC(=O)[C@H](C)N .
inactive

Similarly, CC[C@H](C)[C@H](N)C1=N[C@H](C(=O)N[C@@H](CC(C)C)C(=O)N[C@@H](CCC(=O)O)C(=O)N[C@@H](C(=O)N[C@H]2CCCCNC(=O)[C@@H](CC(N)=O)NC(=O)[C@@H](CC(=O)O)NC(=O)[C@@H](Cc3cnc[nH]3)NC(=O)[C@@H](Cc3ccccc3)NC(=O)[C@@H]([C@@H](C)CC)NC(=O)[C@@H](CCCN)NC2=O)[C@@H](C)CC)CS1 ({Ileψ(thiazoline)Cys}-LE[d(aIle)]K[dOrn][d(aIle)][dF][dH][dD][dN]; lactam 4-C) ?
inactive

Quick one: COc1cc(N)c(Cl)cc1C(=O)N[C@H]1CCN(CCCOc2ccc(F)cc2)C[C@H]1OC
active

Okay, and NC(C(=O)O)[C@@H]1CC(Cl)=NO1 (some centres not stated) ?
active

Same lookup for CC1(C)[C@@H](OC(=O)CCC(=O)O)CC[C@@]2(C)[C@H]1CC[C@@]1(C)[C@H]2C(=O)C=C2[C@H]3C[C@](C)(C(=O)O)CC[C@]3(C)CC[C@@]21C , please.
inactive

Entry CC1(C)SC2C(N3C(=O)C(c4ccccc4)NC3(C)C)C(=O)N2C1C(=O)O (configuration not stated) please
inactive

Please give the result for CC(=O)N(C[C@@H](C)C(=O)O)c1c(I)cc(I)c(N)c1I too.
inactive

Note, next up: CNC[C@H](O)c1ccc(OC(=O)C(C)(C)C)c(OC(=O)C(C)(C)C)c1
inactive

And what about the compound COc1ccccc1OC[C@H](O)CO ?
inactive

Now this one: CC[C@H](CO)NCCN[C@@H](CC)CO
inactive
